# ASSAY METHOD TEXT: Pharmacokinetics in mice after intravenous injection or gavage
# MEASUREMENT CONTEXT: BALB/c, mouse, plasma, iv, 2 mg/kg
MEASURED QUANTITY: AUC(0-t) (ng·h/mL)

Study these solved cases before continuing.
MOLECULE	AUC(0-t), ng·h/mL
CC#Cc1cc(CN2CCN(c3ccc(C(=O)NC4CC4)nc3F)CC2)cc2[nH]c(=O)c(C)nc12 [Example 35]	2750
Cc1nc2c(OC(F)F)cc(CN3CC=C(c4ccc(C(=O)NC5CC5)nc4F)CC3)cc2[nH]c1=O [Example 42]	18100

P: CNC(=O)c1ccc(N2CCN(Cc3cc(-c4ccccc4)c4nc(C)c(=O)[nH]c4c3)CC2)c(F)n1 [Example 2]
Q: CNC(=O)c1ccc(N2CCN(Cc3cc(OC(F)F)c4nc(C)c(=O)[nH]c4c3)CC2)c(C)n1 [Example 52]
Which value of AUC(0-t) is greater, the one for P or the one for Q ? To answer, give the label that identifies your chosen option.
Q

P: CC#Cc1cc(CN2CC=C(c3ccc(C(=O)NC4CC4)nc3F)CC2)c(F)c2[nH]c(=O)c(C)nc12 [Example 41]
Q: CNC(=O)c1ccc(N2CCN(Cc3cc(OC(F)F)c4nc(C)c(=O)[nH]c4c3)CC2)c(F)n1 [Example 13]
Kindly compare P with Q and tell me which has the lower AUC(0-t) figure. Choose, then provide that item's label.
P
